Tested on: HSPB2
Assay: Modulation of HSPB2 gene expression of keratinocytes (real-time qPCR, RQ)
Assay type: cell-based, human
Parameters: key: relative quantity vs DMSO vehicle control (qPCR)
Conditions: nHEK, 24 h, 0.0005%; Example 1
Protocol: Neonatal human epidermal keratinocytes (nHEK) were cultivated in an EpiLife® medium (Gibco) including an HKGS kit (Gibco) with 5% CO2 at 37° C. in accordance with the supplier's instructions. […] Genomic target expression levels in treated cells were measured using a quantitative Real-Time PCR comparison to vehicle control treatment. RNA was isolated using Qiagen's RNeasy® Mini Kit. […] Purity control values such as E260/280 and E260/230 were calculated simultaneously. […]
test_readout: RQ value HSPB2

| compound | measured_target | test_readout | recorded_value |
| --- | --- | --- | --- |
| O=C(/C=C/c1ccc(O)c(O)c1)O[C@@H]1C[C@](OC(=O)/C=C/c2ccc(O)c(O)c2)(C(=O)O)C[C@@H](O)[C@H]1O | HSPB2 | RQ value HSPB2 | 2.4 |
| O=C(/C=C/c1ccc(O)c(O)c1)O[C@@H]1CC(O)(C(=O)O)C[C@@H](OC(=O)/C=C/c2ccc(O)c(O)c2)C1O (stereo partly shown) | HSPB2 | RQ value HSPB2 | 6.1 |
| O=C(/C=C/c1ccc(O)c(O)c1)O[C@@H]1[C@H](O)C[C@@](O)(C(=O)O)C[C@H]1OC(=O)/C=C/c1ccc(O)c(O)c1 | HSPB2 | RQ value HSPB2 | 4.9 |
| O=C(/C=C/c1ccc(O)c(O)c1)O[C@H]1[C@H](O)C[C@](O)(C(=O)O)C[C@H]1OC(=O)/C=C/c1ccc(O)c(O)c1 | HSPB2 | RQ value HSPB2 | 4.3 |
